TARGET OF ASSAY: anti-CD28 scFv (VH - linker 1 - VL) (biotinylated (site not given))
Sequence (scFv, as listed by the source): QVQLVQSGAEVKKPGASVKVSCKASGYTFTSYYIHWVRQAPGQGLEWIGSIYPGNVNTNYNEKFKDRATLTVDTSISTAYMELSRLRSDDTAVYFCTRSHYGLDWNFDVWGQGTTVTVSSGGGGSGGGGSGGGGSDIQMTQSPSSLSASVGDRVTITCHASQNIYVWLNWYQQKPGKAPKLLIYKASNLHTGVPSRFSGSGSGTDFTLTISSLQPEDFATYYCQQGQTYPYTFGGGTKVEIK
ASSAY OVERVIEW: phage ELISA as before, wells pre-incubated with soluble CD28 (competitor)
MEASURED PARAMETER: CD28 scFv signal in presence of CD28

>  <BINDER>
MDWCPRALWHECFN (tested as crude clonal phage supernatant; not shown: pIII of the bacteriophage to which the peptide is fused) [Phage-73, clonal phage peptide MDWCPRALWHECFN]

>  <OBSERVED VALUE>
0.401

$$$$
>  <BINDER>
MDWCPMDLWYQCFN (tested as crude clonal phage supernatant; not shown: pIII of the bacteriophage to which the peptide is fused) [Phage-85, clonal phage peptide MDWCPMDLWYQCFN]

>  <OBSERVED VALUE>
0.187

$$$$
>  <BINDER>
MDWCPMYLWNECFS (tested as crude clonal phage supernatant; not shown: pIII of the bacteriophage to which the peptide is fused) [Phage-80, clonal phage peptide MDWCPMYLWNECFS]

>  <OBSERVED VALUE>
0.411

$$$$
>  <BINDER>
MDWCPRHLWHECFN (tested as crude clonal phage supernatant; not shown: pIII of the bacteriophage to which the peptide is fused) [Phage-78, clonal phage peptide MDWCPRHLWHECFN]

>  <OBSERVED VALUE>
0.704

$$$$
>  <BINDER>
MDWCPIHMWADCFA (tested as crude clonal phage supernatant; not shown: pIII of the bacteriophage to which the peptide is fused) [Phage-69, clonal phage peptide MDWCPIHMWADCFA]

>  <OBSERVED VALUE>
0.143

$$$$
>  <BINDER>
MFWCPTTMWNRCFT (tested as crude clonal phage supernatant; not shown: pIII of the bacteriophage to which the peptide is fused) [Phage-72, clonal phage peptide MFWCPTTMWNRCFT]

>  <OBSERVED VALUE>
0.338

$$$$
>  <BINDER>
ITWCPSSMWNRCFI (tested as crude clonal phage supernatant; not shown: pIII of the bacteriophage to which the peptide is fused) [Phage-70, clonal phage peptide ITWCPSSMWNRCFI]

>  <OBSERVED VALUE>
0.11

$$$$
>  <BINDER>
MDWCPKYLWSVCFF (tested as crude clonal phage supernatant; not shown: pIII of the bacteriophage to which the peptide is fused) [Phage-84, clonal phage peptide MDWCPKYLWSVCFF]

>  <OBSERVED VALUE>
0.826

$$$$
>  <BINDER>
MDWCPRDLWFLCYN (tested as crude clonal phage supernatant; not shown: pIII of the bacteriophage to which the peptide is fused) [Phage-91, clonal phage peptide …]

>  <OBSERVED VALUE>
0.424

$$$$
>  <BINDER>
MDWCPFYLWDECFN (tested as crude clonal phage supernatant; not shown: pIII of the bacteriophage to which the peptide is fused) [Phage-77, clonal phage peptide MDWCPFYLWDECFN]

>  <OBSERVED VALUE>
0.291

$$$$
>  <BINDER>
MDWCPRSHWHVCYN (tested as crude clonal phage supernatant; not shown: pIII of the bacteriophage to which the peptide is fused) [Phage-75, clonal phage peptide MDWCPRSHWHVCYN]

>  <OBSERVED VALUE>
0.281

$$$$
